FYI, the data here is from PubChem BioAssay (NCI).

Entries and their log10 TGI values follow.
- Tested on: BT-549 breast
- Experiment Description: NCI tumour cell line growth inhibition, 48 h
Readout Label: log10 TGI (log10 of the value in µM)

[
  {
    "Compound": "COc1ccc(C2CC(=O)c3c(O)c(OC)c(OC)c(OC)c3O2)cc1O (stereo unspecified)",
    "Readout Label": "log10 TGI",
    "Observed": 1.49
  },
  {
    "Compound": "Fc1cccc(-c2[nH]nc3nc(Nc4cccnc4)sc23)c1",
    "Readout Label": "log10 TGI",
    "Observed": 1.67
  },
  {
    "Compound": "O=c1/c(=C/c2ccc([N+](=O)[O-])o2)sc2n1[C@@H](c1ccc3c(c1)OCO3)C=C(c1cc(F)c(Cl)cc1Cl)N=2",
    "Readout Label": "log10 TGI",
    "Observed": 1.55
  },
  {
    "Compound": "CC[C@H]1C=CCC[C@@]2(C[C@@H]3CC[C@H]4[C@H](C(=O)OCCCCCCCCCCCCCCCC(=O)N(CCCN)C[C@@H](O)CCN)[C@]5(CCC[C@@H](C)O5)NC(=[N+]34)N2)O1",
    "Readout Label": "log10 TGI",
    "Observed": 0.63
  },
  {
    "Compound": "COc1cccc(Nc2nc(N)nc(N)c2N=O)c1",
    "Readout Label": "log10 TGI",
    "Observed": 1.99
  },
  {
    "Compound": "CC[CH2][Sn]([CH2]CC)([O]C(=O)Cc1ccc(F)cc1)[O][Sn]([CH2]CC)([CH2]CC)[O]C(=O)Cc1ccc(F)cc1",
    "Readout Label": "log10 TGI",
    "Observed": -0.04
  },
  {
    "Compound": "Cc1ccc(C2=NN(c3ccc(S(N)(=O)=O)cc3)C(c3cn(-c4ccccc4)nc3-c3ccccc3)C2)cc1 (stereo unspecified)",
    "Readout Label": "log10 TGI",
    "Observed": 1.79
  }
]
